Provenance of the data: ChEMBL document CHEMBL4251720

Assayed target: Estrogen receptor beta (Homo sapiens)
Sequence (Q92731 whole entry): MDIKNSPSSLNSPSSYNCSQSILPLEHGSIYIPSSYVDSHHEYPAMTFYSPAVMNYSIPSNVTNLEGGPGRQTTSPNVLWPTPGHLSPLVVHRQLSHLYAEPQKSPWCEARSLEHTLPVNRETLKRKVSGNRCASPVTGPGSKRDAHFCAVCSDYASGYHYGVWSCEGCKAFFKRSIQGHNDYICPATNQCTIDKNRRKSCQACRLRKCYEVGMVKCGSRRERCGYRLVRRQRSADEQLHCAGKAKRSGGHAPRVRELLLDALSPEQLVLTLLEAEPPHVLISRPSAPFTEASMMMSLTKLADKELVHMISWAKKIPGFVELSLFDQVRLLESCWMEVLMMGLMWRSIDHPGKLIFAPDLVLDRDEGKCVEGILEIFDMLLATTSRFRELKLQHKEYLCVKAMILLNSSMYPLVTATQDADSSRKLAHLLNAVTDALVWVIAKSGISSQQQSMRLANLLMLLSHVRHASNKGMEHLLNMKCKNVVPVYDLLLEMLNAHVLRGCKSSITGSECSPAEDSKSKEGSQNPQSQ
Readout kind: pEC50
Answers are plain numbers, as −log10 of the molar value.

Q. Requested read-out: pEC50. Entry: "CC(C)=CCc1c(O)cc(O)c2c1O[C@H](c1ccc(O)cc1)CC2=O"
A. 8.30

----------
Assayed target: Estrogen receptor (Homo sapiens, UniProt P03372)
Sequence (P03372 whole entry): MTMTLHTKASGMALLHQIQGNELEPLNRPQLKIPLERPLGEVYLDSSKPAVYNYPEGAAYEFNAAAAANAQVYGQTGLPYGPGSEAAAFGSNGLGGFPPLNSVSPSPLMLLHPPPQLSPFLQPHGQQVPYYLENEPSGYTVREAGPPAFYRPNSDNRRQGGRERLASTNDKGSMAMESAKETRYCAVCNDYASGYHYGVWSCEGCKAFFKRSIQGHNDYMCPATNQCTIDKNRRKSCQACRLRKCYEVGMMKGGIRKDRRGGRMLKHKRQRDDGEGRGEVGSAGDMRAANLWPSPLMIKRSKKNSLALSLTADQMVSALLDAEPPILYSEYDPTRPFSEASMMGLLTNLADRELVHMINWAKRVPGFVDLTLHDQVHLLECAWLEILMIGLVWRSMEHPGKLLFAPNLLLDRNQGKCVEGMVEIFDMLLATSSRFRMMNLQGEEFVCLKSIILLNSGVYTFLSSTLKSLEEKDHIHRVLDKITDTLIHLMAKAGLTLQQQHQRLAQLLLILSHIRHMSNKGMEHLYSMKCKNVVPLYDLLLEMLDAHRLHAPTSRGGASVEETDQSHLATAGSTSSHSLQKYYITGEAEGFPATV
Readout kind: pEC50
Numbers only, as −log10 of the molar value.

Q. Requested read-out: pEC50. Entry: CCCc1c(-c2ccc(O)cc2)nn(-c2ccc(O)cc2)c1-c1ccc(O)cc1 [PROPYLPYRAZOLETRIOL]
A. 9.00

----------
Assayed target: Estrogen receptor alpha (ERalpha) (Homo sapiens, UniProt P03372)
Method summary: in vitro
Condition details: Ishikawa cells, probe p-nitrophenol (so in the source) as alkaline phosphatase substrate
Description: Estrogenic activity at ERalpha in human Ishikawa cells assessed as induction of alkaline phosphatase activity using p-nitrophenol as substrate treated for 96 hrs followed by substrate addition by spectrophotometric method relative to estradiol
Readout kind: Emax at 96 h (%)
Give bare numbers, in %.

Q. Requested read-out: Emax at 96 h. Entry: "CCCc1c(-c2ccc(O)cc2)nn(-c2ccc(O)cc2)c1-c1ccc(O)cc1"
A. 119
